Data origin: the supplement of paper PMC9694430

Reported thermal shift delta Tm is given for each of the following compounds.
Test system: LOC_OS01G21960-cb002;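 note: purified Escherichia coli-expressed rice kinase domain construct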
Test: thermal shift delta Tm vs DMSO control; higher = stronger stabilization (binding)
Settings: 12.5 µM; protein concentration 2 µM
Supply the numeric figure in °C, leaving out any unit text.

CCOc1cn(-c2ccc(F)cc2C)nc1C(=O)Nc1ccc(Oc2ccnc3cc(OC)c(OC)cc23)c(F)c1 : -0.29
Cc1nc2c(-c3cnc(N)nc3)nc(N3CCOCC3)nc2n1C(C)C : 0.83
Cc1ncc(-c2ccnc(Nc3ccc(S(C)(=O)=O)cc3)n2)n1C(C)C : 2.32
OCCn1cc(-c2cnc3nnn(Cc4ccc5ncccc5c4)c3n2)cn1 : 0.14
CCN1/C(=C/C(C)=O)Sc2ccc(OC)cc21 : 1.17

In the following, a different compound is considered.
// query Write down thermal shift delta Tm measured for item CN1CCN(Cc2ccc(NC(=O)Nc3ccc(Oc4ccnc(N)n4)cc3)cc2C(F)(F)F)CC1
// result 0.98
